Source of measurements: ChEMBL document CHEMBL4842364

Task for the reader: assign each of the following compounds its reported CLint scaled.
# RUN_DESCRIPTION: Intrinsic clearance in human microsomes
# Type: ADME, Microsome
Answers are plain numbers, in mL/min/kg.

compound="C=CCn1c(=O)c2cnc(Nc3ccc(N4CCN(C)CC4)cc3)nc2n1-c1ccc2c(n1)C(O)CC2 (stereo in doubt; 8)" assay_value=12
compound=C=CCn1c(=O)c2cnc(Nc3cc(N4CCN(C)CC4)c4ccn(C)c4c3)nc2n1-c1ccc2c(n1)[C@@](O)(CC)CC2 assay_value=41

Next compound, please.
For the compound C=CCn1c(=O)c2cnc(Nc3ccc(N4CCN(C)CC4)cc3)nc2n1-c1ccc2c(n1)C(O)(CC)CC2 (racemic) , report CLint scaled.
40
